Values from ChEMBL document CHEMBL1139283

In this section, each of the molecules is paired with its reported IC50.
tested on: HeLa; assay: Cytotoxicity against human HeLa cells after 72 hrs by trypan blue assay; assay type: functional, cell-based

Output reported IC50 of the molecule `COc1ccc(-n2ncc3c2-c2ccc(Cl)cc2SC3)cc1` on HeLa.
> 20 µM

Output reported IC50 of the molecule `COc1ccc2c(c1)SCc1cnn(-c3ccccc3)c1-2` on HeLa.
17.2 µM

Output reported IC50 of the molecule `COc1ccc(-n2cc3c(n2)-c2ccc(OC)cc2SC3)cc1` on HeLa.
> 20 µM

Output reported IC50 of the molecule `Clc1ccc2c(c1)SCc1cn[nH]c1-2` on HeLa.
> 20 µM

Output reported IC50 of the molecule `Clc1ccc2c(c1)SCc1cnn(-c3ccccc3)c1-2` on HeLa.
> 20 µM

Output reported IC50 of the molecule `COc1ccc2c(c1)SCc1cn[nH]c1-2` on HeLa.
> 20 µM

###

system: HL-60; assay: Cytotoxicity against human HL60 cells after 72 hrs by trypan blue assay; format: functional, cell-based; settings: HL-60, 72 h
In this section, each of the compounds is paired with its reported IC50.

Study these solved cases before continuing.
{"columns": ["STRUCTURE_AS_SMILES", "IC50"],
 "data": [
  ["COc1ccc2c(c1)SCc1cnn(-c3ccccc3)c1-2", "12.5 µM"],
  ["COc1ccc(-n2cc3c(n2)-c2ccc(OC)cc2SC3)cc1", "> 20 µM"],
  ["COc1ccc(-n2ncc3c2-c2ccc(Cl)cc2SC3)cc1", "> 20 µM"],
  ["COc1ccc2c(c1)SCc1cnn(-c3ccc(Cl)cc3)c1-2", "3.8 µM"],
  ["COc1ccc2c(c1)SCc1cn[nH]c1-2", "> 20 µM"]
]}

Now look at this entry.
Write down IC50 measured for item `COc1ccc(-n2ncc3c2-c2ccc(OC)cc2SC3)cc1`
6.6 µM

###

tested on: HeLa; assay: Cytotoxicity against human HeLa cells after 72 hrs by trypan blue assay; assay type: functional, cell-based
In this section, each of the compounds is paired with its reported IC50.
Respond numerically; units are µM and should not be typed.

{"columns": ["STRUCTURE_AS_SMILES", "TEST_SYSTEM", "IC50, µM"],
 "data": [
  ["COc1ccc2c(c1)SCc1cnn(-c3ccc(Cl)cc3)c1-2", "HeLa", 6.7]
]}

Now look at this entry.
Write down IC50 measured for item `COc1ccc(-n2ncc3c2-c2ccc(OC)cc2SC3)cc1`
17.8

###

tested on: HL-60; test: Cytotoxicity against human HL60 cells after 72 hrs by trypan blue assay; format: functional, cell-based; details: HL-60, 72 h
pIC50: −log10 of the molar value.
OUTCOME_MEASURE: pIC50

Study these solved cases before continuing.
{"columns": ["STRUCTURE_AS_SMILES", "pIC50"],
 "data": [
  ["Clc1ccc2c(c1)SCc1cnn(-c3ccccc3)c1-2", "< 4.70"],
  ["Clc1ccc2c(c1)SCc1cn[nH]c1-2", "< 4.70"],
  ["Clc1ccc(-n2ncc3c2-c2ccc(Cl)cc2SC3)cc1", "< 4.70"]
]}

Write down pIC50 measured for item `COc1ccc2c(c1)SCc1cn(-c3ccc(Cl)cc3)nc1-2`
< 4.70

Write down pIC50 measured for item `COc1ccc2c(c1)SCc1cn(-c3ccccc3)nc1-2`
< 4.70

Write down pIC50 measured for item `COc1ccc2c(c1)SCc1cnc(-c3ccccc3)nc1-2`
5.15

###

system: HeLa; test: Cytotoxicity against human HeLa cells after 72 hrs by trypan blue assay; assay type: functional, cell-based
pIC50: −log10 of the molar value.
OUTCOME_MEASURE: pIC50

Study these solved cases before continuing.
{"columns": ["STRUCTURE_AS_SMILES", "OUTCOME_MEASURE", "MEAS_VALUE"],
 "data": [
  ["Clc1ccc(-n2ncc3c2-c2ccc(Cl)cc2SC3)cc1", "pIC50", "< 4.70"],
  ["COc1ccc2c(c1)SCc1cn(-c3ccc(Cl)cc3)nc1-2", "pIC50", "< 4.70"]
]}

Write down pIC50 measured for item `COc1ccc2c(c1)SCc1cn(-c3ccccc3)nc1-2`
< 4.70
